target_under_test: T1, EsCas13d, nuclease-dead (Eubacterium siraeum, UniProt B0MS50, R295A;H300A;R849A;H854A)
T1 sequence: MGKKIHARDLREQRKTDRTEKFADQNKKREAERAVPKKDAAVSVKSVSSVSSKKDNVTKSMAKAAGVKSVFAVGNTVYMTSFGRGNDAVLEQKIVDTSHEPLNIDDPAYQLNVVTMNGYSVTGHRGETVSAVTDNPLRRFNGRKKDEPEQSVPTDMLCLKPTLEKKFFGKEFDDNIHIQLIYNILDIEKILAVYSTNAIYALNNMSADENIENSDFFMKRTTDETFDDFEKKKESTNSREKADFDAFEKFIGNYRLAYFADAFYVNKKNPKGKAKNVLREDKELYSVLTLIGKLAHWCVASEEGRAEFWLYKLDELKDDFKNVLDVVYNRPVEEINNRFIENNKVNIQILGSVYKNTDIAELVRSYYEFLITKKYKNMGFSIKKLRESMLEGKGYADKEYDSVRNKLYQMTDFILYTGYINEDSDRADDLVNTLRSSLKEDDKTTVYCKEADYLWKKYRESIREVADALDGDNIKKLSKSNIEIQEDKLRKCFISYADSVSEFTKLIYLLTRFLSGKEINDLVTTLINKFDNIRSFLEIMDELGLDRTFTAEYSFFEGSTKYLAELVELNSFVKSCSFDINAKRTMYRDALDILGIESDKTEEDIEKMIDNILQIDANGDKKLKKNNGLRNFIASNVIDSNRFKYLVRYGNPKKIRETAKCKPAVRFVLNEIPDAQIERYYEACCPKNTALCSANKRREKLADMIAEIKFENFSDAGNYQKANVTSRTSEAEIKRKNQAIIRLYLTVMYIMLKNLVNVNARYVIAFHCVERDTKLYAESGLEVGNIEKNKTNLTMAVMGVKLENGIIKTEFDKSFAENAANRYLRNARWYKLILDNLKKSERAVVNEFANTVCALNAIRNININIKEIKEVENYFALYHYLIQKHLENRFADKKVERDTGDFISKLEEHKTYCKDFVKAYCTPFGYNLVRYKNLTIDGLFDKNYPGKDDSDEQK
experiment_summary: crRNA (strand 1, pre-loaded); Mg2+; 40 mM Tris-HCl pH 7.5, 150 mM NaCl, 6 mM MgCl2, 1 mM DTT, 0.1% Tween-20, 0.2 mg/ml BSA; 25 C; 10 min per concentration, then washed
assay_context: tags: His6-TwinStrep-SUMO cleaved; N-terminal SNAP kept (SNAP-Surface 488); label: 3' end held by stalled T7 RNA polymerase
Reported pKd values are given for each entry in this list.
Quick note: pKd values are minus log10 of concentrations in mol/L.

target 2 MT 5'PFS GCU 3'PFS CUA (mixed) RNA 1: CACCCGUGCAAAAUUGCAGGGGUCUAAAACCUUCUCCAAAUUGUUUCAUCCU RNA 2: GGGAAUGGAUCCACAUCUACGAAUUCGCUAGGAUGAAACAAUUUGGAGAAGCUAAGAUCGGAAGAGCACACGU = 7.77

API: the following record is the query input.
// pKd lookup, key: target 1 insA 3' of 17,insA 3' of 13 (mixed) RNA 1: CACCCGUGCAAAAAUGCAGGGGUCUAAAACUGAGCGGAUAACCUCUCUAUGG RNA 2: GGGAAUGGAUCCACAUCUACGAAUUCGUACCAUAGAAGAGAGUUAUCCGCUCACCGAGAUCGGAAGAGCACACGU 8.00

Source of measurements: paper PMC10786891
